- System: 569 E. faecium (GRE)
- assay-notes: MIC, broth microdilution in Meuller-Hinton broth (NCCLS)
- Type: cell-based
- settings: glycopeptide-resistant clinical isolate
measure: MIC 569 E. faecium (GRE) (µg/mL)

[
  {
    "compound": "CNC(CC(C)C)C(=O)NC1C(=O)NC(CC(N)=O)C(=O)NC2C(=O)NC3C(=O)NC(C(=O)NC(C(=O)O)c4cc(O)cc(O)c4-c4cc3ccc4O)C(OC3CC(C)(N)C(O)C(C)O3)c3ccc(cc3)Oc3cc2cc(c3OC2OC(CO)C(O)C(O)C2OC2CC(C)(NC(=O)CNCc3cc4ccccc4c4ccccc34)C(O)C(C)O2)Oc2ccc(cc2Cl)C1O (stereo not drawn)",
    "readout-relation": ">",
    "quantitative-result": 64
  },
  {
    "compound": "CCCCCCCCCC(=O)NCC(=O)NC1(C)CC(OC2C(Oc3c4cc5cc3Oc3ccc(cc3Cl)C(O)C(NC(=O)C(CC(C)C)NC)C(=O)NC(CC(N)=O)C(=O)NC5C(=O)NC3C(=O)NC(C(=O)NC(C(=O)O)c5cc(O)cc(O)c5-c5cc3ccc5O)C(OC3CC(C)(N)C(O)C(C)O3)c3ccc(cc3)O4)OC(CO)C(O)C2O)OC(C)C1O (stereo not drawn)",
    "readout-relation": ">",
    "quantitative-result": 64
  },
  {
    "compound": "CNC(CC(C)C)C(=O)NC1C(=O)NC(CC(N)=O)C(=O)NC2C(=O)NC3C(=O)NC(C(=O)NC(C(=O)O)c4cc(O)cc(O)c4-c4cc3ccc4O)C(OC3CC(C)(N)C(O)C(C)O3)c3ccc(cc3)Oc3cc2cc(c3OC2OC(CO)C(O)C(O)C2OC2CC(C)(NC(=O)CNCc3c[nH]c4ccc(OCc5ccccc5)cc34)C(O)C(C)O2)Oc2ccc(cc2Cl)C1O (stereo not drawn)",
    "readout-relation": "=",
    "quantitative-result": 16
  },
  {
    "compound": "CNC(CC(C)C)C(=O)NC1C(=O)NC(CC(N)=O)C(=O)NC2C(=O)NC3C(=O)NC(C(=O)NC(C(=O)O)c4cc(O)cc(O)c4-c4cc3ccc4O)C(OC3CC(C)(N)C(O)C(C)O3)c3ccc(cc3)Oc3cc2cc(c3OC2OC(CO)C(O)C(O)C2OC2CC(C)(NC(=O)CNCc3ccc4c(c3)Cc3ccccc3-4)C(O)C(C)O2)Oc2ccc(cc2Cl)C1O (stereo not drawn)",
    "readout-relation": "=",
    "quantitative-result": 32
  },
  {
    "compound": "CCCCOc1ccc(CNCC(=O)NC2(C)CC(OC3C(Oc4c5cc6cc4Oc4ccc(cc4Cl)C(O)C4NC(=O)C(NC(=O)C6NC(=O)C(CC(N)=O)NC(=O)C(NC(=O)C(CC(C)C)NC)C(O)c6ccc(c(Cl)c6)O5)c5ccc(O)c(c5)-c5c(O)cc(O)cc5C(C(=O)O)NC4=O)OC(CO)C(O)C3O)OC(C)C2O)cc1 (stereo not drawn)",
    "readout-relation": ">",
    "quantitative-result": 64
  },
  {
    "compound": "CNC(CC(C)C)C(=O)NC1C(=O)NC(CC(N)=O)C(=O)NC2C(=O)NC3C(=O)NC(C(=O)NC(C(=O)O)c4cc(O)cc(O)c4-c4cc3ccc4O)C(OC3CC(C)(N)C(O)C(C)O3)c3ccc(cc3)Oc3cc2cc(c3OC2OC(CO)C(O)C(O)C2OC2CC(C)(NC(=O)CNCc3cn(Cc4ccccc4)c4ccccc34)C(O)C(C)O2)Oc2ccc(cc2Cl)C1O (stereo not drawn)",
    "readout-relation": "=",
    "quantitative-result": 16
  }
]

###

Measured MIC 3797 S. aureus (GISA) of individual entries
- Test system: 3797 S. aureus (GISA)
- assay-notes: MIC, broth microdilution in Meuller-Hinton broth (NCCLS)
- Format: cell-based, Staphylococus aureus
- settings: glycopeptides-intermediate clinical isolate
measure: MIC 3797 S. aureus (GISA)

[
  {
    "molecule": "CNC(CC(C)C)C(=O)NC1C(=O)NC(CC(N)=O)C(=O)NC2C(=O)NC3C(=O)NC(C(=O)NC(C(=O)O)c4cc(O)cc(O)c4-c4cc3ccc4O)C(OC3CC(C)(N)C(O)C(C)O3)c3ccc(cc3)Oc3cc2cc(c3OC2OC(CO)C(O)C(O)C2OC2CC(C)(NC(=O)CNCc3cn(Cc4ccccc4)c4ccccc34)C(O)C(C)O2)Oc2ccc(cc2Cl)C1O (stereo not drawn)",
    "result": "4 µg/mL"
  },
  {
    "molecule": "CNC(CC(C)C)C(=O)NC1C(=O)NC(CC(N)=O)C(=O)NC2C(=O)NC3C(=O)NC(C(=O)NC(C(=O)O)c4cc(O)cc(O)c4-c4cc3ccc4O)C(OC3CC(C)(N)C(O)C(C)O3)c3ccc(cc3)Oc3cc2cc(c3OC2OC(CO)C(O)C(O)C2OC2CC(C)(NC(=O)[C@@H](N)Cc3ccc(OCc4ccccc4)cc3)C(O)C(C)O2)Oc2ccc(cc2Cl)C1O (stereo partly drawn)",
    "result": "16 µg/mL"
  },
  {
    "molecule": "CNC(CC(C)C)C(=O)NC1C(=O)NC(CC(N)=O)C(=O)NC2C(=O)NC3C(=O)NC(C(=O)NC(C(=O)O)c4cc(O)cc(O)c4-c4cc3ccc4O)C(OC3CC(C)(N)C(O)C(C)O3)c3ccc(cc3)Oc3cc2cc(c3OC2OC(CO)C(O)C(O)C2OC2CC(C)(NC(=O)CNCc3cc4ccccc4c4ccccc34)C(O)C(C)O2)Oc2ccc(cc2Cl)C1O (stereo not drawn)",
    "result": "16 µg/mL"
  }
]

###

Measured MIC 569 E. faecium (GRE) of individual entries
- Tested on: 569 E. faecium (GRE)
- assay-notes: MIC, broth microdilution in Meuller-Hinton broth (NCCLS)
- Format: cell-based
- settings: glycopeptide-resistant clinical isolate

[
  {
    "compound": "CNC(CC(C)C)C(=O)NC1C(=O)NC(CC(N)=O)C(=O)NC2C(=O)NC3C(=O)NC(C(=O)NC(C(=O)O)c4cc(O)cc(O)c4-c4cc3ccc4O)C(OC3CC(C)(N)C(O)C(C)O3)c3ccc(cc3)Oc3cc2cc(c3OC2OC(CO)C(O)C(O)C2OC2CC(C)(NC(=O)CNC(=O)OCC3c4ccccc4-c4ccccc43)C(O)C(C)O2)Oc2ccc(cc2Cl)C1O (stereo not drawn) [Compound 221]",
    "MIC 569 E. faecium (GRE) [µg/mL]": 64
  },
  {
    "compound": "CNC(CC(C)C)C(=O)NC1C(=O)NC(CC(N)=O)C(=O)NC2C(=O)NC3C(=O)NC(C(=O)NC(C(=O)O)c4cc(O)cc(O)c4-c4cc3ccc4O)C(OC3CC(C)(N)C(O)C(C)O3)c3ccc(cc3)Oc3cc2cc(c3OC2OC(CO)C(O)C(O)C2OC2CC(C)(NC(=O)CNCc3ccc(F)cc3)C(O)C(C)O2)Oc2ccc(cc2Cl)C1O (stereo not drawn) [Compound 293]",
    "MIC 569 E. faecium (GRE) [µg/mL]": 16
  },
  {
    "compound": "CCCCc1ccc(CNCC(=O)NC2(C)CC(OC3C(Oc4c5cc6cc4Oc4ccc(cc4Cl)C(O)C(NC(=O)C(CC(C)C)NC)C(=O)NC(CC(N)=O)C(=O)NC6C(=O)NC4C(=O)NC(C(=O)NC(C(=O)NC)c6cc(O)cc(O)c6-c6cc4ccc6O)C(OC4CC(C)(N)C(O)C(C)O4)c4ccc(cc4)O5)OC(CO)C(O)C3O)OC(C)C2O)cc1 (stereo not drawn) [Compound 77]",
    "MIC 569 E. faecium (GRE) [µg/mL]": 8
  }
]

###

- System: 3798 S. aureus (GISA)
- assay-notes: MIC, broth microdilution in Meuller-Hinton broth (NCCLS)
- Assay type: cell-based, Staphylococus aureus
- settings: glycopeptides-intermediate clinical isolate

[
  {
    "compound": "CCCCc1ccc(CNCC(=O)NC2(C)CC(OC3C(Oc4c5cc6cc4Oc4ccc(cc4Cl)C(O)C(NC(=O)C(CC(C)C)NC)C(=O)NC(CC(N)=O)C(=O)NC6C(=O)NC4C(=O)NC(C(=O)NC(C(=O)NC(C)C67CC8CC(CC(C8)C6)C7)c6cc(O)cc(O)c6-c6cc4ccc6O)C(OC4CC(C)(N)C(O)C(C)O4)c4ccc(cc4)O5)OC(CO)C(O)C3O)OC(C)C2O)cc1 (stereo not drawn)",
    "tgt": "3798 S. aureus (GISA)",
    "MIC 3798 S. aureus (GISA) [µg/mL]": 16
  },
  {
    "compound": "CNC(CC(C)C)C(=O)NC1C(=O)NC(CC(N)=O)C(=O)NC2C(=O)NC3C(=O)NC(C(=O)NC(C(=O)O)c4cc(O)cc(O)c4-c4cc3ccc4O)C(OC3CC(C)(N)C(O)C(C)O3)c3ccc(cc3)Oc3cc2cc(c3OC2OC(CO)C(O)C(O)C2OC2CC(C)(NC(=O)CNCc3ccc(-c4ccc(Cl)cc4)cc3)C(O)C(C)O2)Oc2ccc(cc2Cl)C1O (stereo not drawn)",
    "tgt": "3798 S. aureus (GISA)",
    "MIC 3798 S. aureus (GISA) [µg/mL]": 4
  },
  {
    "compound": "CCCCc1ccc(CNCC(=O)NC2(C)CC(OC3C(Oc4c5cc6cc4Oc4ccc(cc4Cl)C(O)C4NC(=O)C(NC(=O)C6NC(=O)C(CC(N)=O)NC(=O)C(NC(=O)C(CC(C)C)NC)C(O)c6ccc(c(Cl)c6)O5)c5ccc(O)c(c5)-c5c(O)cc(O)cc5C(C(=O)O)NC4=O)OC(CO)C(O)C3O)OC(C)C2O)cc1 (stereo not drawn)",
    "tgt": "3798 S. aureus (GISA)",
    "MIC 3798 S. aureus (GISA) [µg/mL]": 2
  }
]
